// data source = paper PMC9587079

- ASSAY OVERVIEW: PFOA in plasma over time after inhalation or gavage of PFOA-coated house dust
- Assay type: in vivo, rat
- CONDITION DESCRIPTION: male, RccHan:WIST, rat, plasma; oral gavage group, n = 4, 364 μg PFOA/kg BW
PROPERTY LABEL: Cmax (ng/mL)

SMILES STR	PROPERTY LABEL	UNIT OF MEASUREMENT	QUANTITATIVE RESULT
O=C(O)C(F)(F)C(F)(F)C(F)(F)C(F)(F)C(F)(F)C(F)(F)C(F)(F)F	Cmax	ng/mL	1730

====

- ASSAY OVERVIEW: PFOA in terminal plasma, lung lavage and tissues 48 h after dust exposure
- Format: in vivo, rat
- CONDITION DESCRIPTION: male, RccHan:WIST, rat, liver, inhaled, 164 μg PFOA/kg BW, liver, 48 h, inhalation
PROPERTY LABEL: concentration at 48 h (ng/g)

SMILES STR	QUANTITATIVE RESULT
O=C(O)C(F)(F)C(F)(F)C(F)(F)C(F)(F)C(F)(F)C(F)(F)C(F)(F)F	10100

====

- ASSAY OVERVIEW: PFOA in terminal plasma, lung lavage and tissues 48 h after dust exposure
- Type: in vivo, rat
- CONDITION DESCRIPTION: male, RccHan:WIST, rat, liver, inhaled, 164 μg PFOA/kg BW; 48 h, inhalation; read-out: Liver:plasma ratio of PFOA concentration
PROPERTY LABEL: Kp at 48 h

MOLECULE	QUANTITATIVE RESULT
O=C(O)C(F)(F)C(F)(F)C(F)(F)C(F)(F)C(F)(F)C(F)(F)C(F)(F)F [PFOA, Perfluorooctanoic acid]	5.28

====

- ASSAY OVERVIEW: Extractable organofluorine (EOF) and fluorine mass balance in plasma and tissues at 48 h
- Assay type: in vivo, rat
- CONDITION DESCRIPTION: male, RccHan:WIST, rat, inhaled, 164 μg PFOA/kg BW, kidney, inhalation, read-out: PFOA-fluorine equivalent
PROPERTY LABEL: concentration at 48 h (ng/g)

SMILES STR	UNIT OF MEASUREMENT	QUANTITATIVE RESULT
O=C(O)C(F)(F)C(F)(F)C(F)(F)C(F)(F)C(F)(F)C(F)(F)C(F)(F)F	ng/g	2640

====

- ASSAY OVERVIEW: Extractable organofluorine (EOF) and fluorine mass balance in plasma and tissues at 48 h
- Type: in vivo, rat
- CONDITION DESCRIPTION: male, RccHan:WIST, rat, inhaled, 164 μg PFOA/kg BW, liver, inhalation, read-out: PFOA-fluorine equivalent

SMILES STR	concentration at 48 h, ng/g
O=C(O)C(F)(F)C(F)(F)C(F)(F)C(F)(F)C(F)(F)C(F)(F)C(F)(F)F	6950

====

- ASSAY OVERVIEW: Extractable organofluorine (EOF) and fluorine mass balance in plasma and tissues at 48 h
- Format: in vivo, rat
- CONDITION DESCRIPTION: male, RccHan:WIST, rat, 364 μg PFOA/kg BW, kidney, oral, read-out: PFOA-fluorine equivalent

COMPOUND	concentration at 48 h
O=C(O)C(F)(F)C(F)(F)C(F)(F)C(F)(F)C(F)(F)C(F)(F)C(F)(F)F [PFOA, Perfluorooctanoic acid]	2160 ng/g
